Values were extracted from the supplement of paper PMC6992640.

Tested on: WHIM2 (cells of a triple-negative basal-like breast cancer xenograft);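 further: cells dissociated from PDX tumors propagated in female NSG mouse mammary fat pads, vehicle control 0.1% DMSO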
Experiment: cell viability (% of vehicle); higher = less cytotoxic
Details: 1 µM; 72 h
# note: exactly 90 is not below, so it is no; use yes for cell viability strictly under it

Previously resolved entries follow.
MOLECULE	CLASS_NAME
CNC(=O)c1cc(Oc2ccc(NC(=O)Nc3ccc(Cl)c(C(F)(F)F)c3)cc2)ccn1.Cc1ccc(S(=O)(=O)O)cc1 [Sorafenib Tosylate]	yes
CC(C)C[C@H](NC(=O)[C@H](Cc1ccccc1)NC(=O)c1cnccn1)B(O)O [Bortezomib]	yes
COC(=O)C1=C(C)NC(C)=C(C(=O)OC2CCCN(Cc3ccccc3)C2)C1c1cccc([N+](=O)[O-])c1.Cl (configuration not stated) [Benidipine HCl]	no
CC[C@@]1(O)C(=O)OCc2c1cc1n(c2=O)Cc2cc3c(CN(C)C)c(O)ccc3nc2-1.Cl [Topotecan HCl]	yes
CNC(=O)c1cc(Oc2ccc(NC(=O)Nc3ccc(Cl)c(C(F)(F)F)c3)c(F)c2)ccn1 [Regorafenib]	no

Q) Given CC(C)c1nc(N(C)S(C)(=O)=O)nc(-c2ccc(F)cc2)c1C=CC(O)CC(O)CC(=O)[O-].CC(C)c1nc(N(C)S(C)(=O)=O)nc(-c2ccc(F)cc2)c1C=CC(O)CC(O)CC(=O)[O-].[Ca+2] (configuration not stated) [Rosuvastatin Calcium] , is recorded cell viability strictly lower than 90?
A) yes

Q) Given CS(=O)(=O)CCNCc1ccc(-c2ccc3ncnc(Nc4ccc(OCc5cccc(F)c5)c(Cl)c4)c3c2)o1.Cc1ccc(S(=O)(=O)O)cc1.Cc1ccc(S(=O)(=O)O)cc1 [Lapatinib Ditosylate] , is recorded cell viability strictly lower than 90?
A) yes

Q) Given CC(C)C1=CC(=C2NNC(=O)N2c2ccc3c(ccn3C)c2)C(=O)C=C1O [Ganetespib (STA-9090)] , is recorded cell viability strictly lower than 90?
A) yes
